target: PI3K β (p110β/p85α) (Homo sapiens, UniProt P42338); construct: purchased Upstate / Millipore Corporation; experiment: PI 3-Kinase (human) HTRF assay, PI3K β; format: biochemical; conditions: Table 4 (PI3K α inhibitors); read-out: PI3K β IC50
Sequence (P42338 whole entry): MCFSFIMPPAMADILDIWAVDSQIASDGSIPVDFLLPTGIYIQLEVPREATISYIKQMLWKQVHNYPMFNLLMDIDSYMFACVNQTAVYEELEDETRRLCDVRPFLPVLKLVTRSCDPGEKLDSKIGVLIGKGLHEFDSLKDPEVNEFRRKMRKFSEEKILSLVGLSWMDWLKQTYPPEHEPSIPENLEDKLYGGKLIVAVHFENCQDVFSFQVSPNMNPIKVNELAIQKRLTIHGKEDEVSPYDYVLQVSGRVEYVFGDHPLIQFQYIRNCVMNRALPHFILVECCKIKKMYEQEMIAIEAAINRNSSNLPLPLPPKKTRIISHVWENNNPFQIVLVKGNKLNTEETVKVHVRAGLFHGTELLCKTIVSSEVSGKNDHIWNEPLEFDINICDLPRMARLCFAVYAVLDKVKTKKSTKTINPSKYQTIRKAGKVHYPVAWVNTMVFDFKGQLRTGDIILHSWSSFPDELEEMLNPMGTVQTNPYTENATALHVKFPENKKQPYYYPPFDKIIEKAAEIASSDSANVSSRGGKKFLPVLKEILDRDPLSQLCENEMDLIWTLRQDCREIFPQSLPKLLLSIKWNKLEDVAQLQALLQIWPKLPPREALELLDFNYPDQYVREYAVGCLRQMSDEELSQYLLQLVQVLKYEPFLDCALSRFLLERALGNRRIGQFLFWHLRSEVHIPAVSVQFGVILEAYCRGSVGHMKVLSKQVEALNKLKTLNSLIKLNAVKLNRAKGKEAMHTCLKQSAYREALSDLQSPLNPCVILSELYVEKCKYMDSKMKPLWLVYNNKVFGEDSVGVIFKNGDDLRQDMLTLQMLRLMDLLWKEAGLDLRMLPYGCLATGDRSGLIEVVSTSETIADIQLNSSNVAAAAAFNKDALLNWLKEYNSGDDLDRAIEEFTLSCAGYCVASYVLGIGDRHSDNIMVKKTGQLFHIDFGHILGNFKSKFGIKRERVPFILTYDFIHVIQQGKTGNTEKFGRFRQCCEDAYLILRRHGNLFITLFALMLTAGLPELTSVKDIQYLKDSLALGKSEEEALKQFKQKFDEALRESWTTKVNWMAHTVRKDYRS
Sequence (P27986 whole entry partner): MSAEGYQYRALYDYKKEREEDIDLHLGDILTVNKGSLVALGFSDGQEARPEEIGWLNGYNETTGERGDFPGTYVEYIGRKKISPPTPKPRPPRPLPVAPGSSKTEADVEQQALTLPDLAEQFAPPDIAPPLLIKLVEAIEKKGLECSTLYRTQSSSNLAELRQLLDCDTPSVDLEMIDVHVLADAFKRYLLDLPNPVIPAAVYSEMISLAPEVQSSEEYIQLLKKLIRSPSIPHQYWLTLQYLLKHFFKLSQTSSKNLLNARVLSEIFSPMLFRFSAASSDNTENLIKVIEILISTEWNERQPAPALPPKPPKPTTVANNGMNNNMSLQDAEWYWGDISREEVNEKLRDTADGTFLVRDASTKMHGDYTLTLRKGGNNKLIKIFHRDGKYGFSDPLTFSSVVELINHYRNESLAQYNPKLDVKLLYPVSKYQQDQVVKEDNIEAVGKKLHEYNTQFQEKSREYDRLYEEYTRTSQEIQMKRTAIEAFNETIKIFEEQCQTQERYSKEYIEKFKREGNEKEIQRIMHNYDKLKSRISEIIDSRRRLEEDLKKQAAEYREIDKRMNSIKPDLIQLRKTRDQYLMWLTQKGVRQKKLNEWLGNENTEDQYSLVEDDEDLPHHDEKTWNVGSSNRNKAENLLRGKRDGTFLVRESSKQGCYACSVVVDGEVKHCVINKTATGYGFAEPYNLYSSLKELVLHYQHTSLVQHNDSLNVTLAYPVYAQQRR
OBSERVATION TYPE: IC50

[[record]]
compound = "CC1(C)CN(C2CN(c3cnc4ccc(-c5ccc6oc(N)nc6c5)nc4n3)C2)CCO1 [Compound 568]"
observation_type = "IC50"
measured_value = "> 10 µM"


Problem: Tell me measured IC50 for Nc1nc2cc(-c3ccc4ncc(N5CCOCC5)nc4n3)ccc2o1 [Compound 553] please.
Solution: < 1 µM

Problem: Tell me measured IC50 for Nc1nc2cc(-c3ccc4ncc(N5CCN(C(=O)C6(N)CC6)CC5)cc4n3)ccc2o1 [Compound 593] please.
Solution: < 1 µM

Problem: Tell me measured IC50 for Nc1nc2cc(-c3ccc4ncc(N5CCNC(=O)C5)cc4n3)ccc2o1 [Compound 580] please.
Solution: < 1 µM

Problem: Tell me measured IC50 for CN1CCN(c2cnc3ccc(-c4ccc5oc(N)nc5c4)nc3c2)CC1 [Compound 575] please.
Solution: < 0.1 µM

Problem: Tell me measured IC50 for C[C@H](N)C(=O)N1CCN(c2cnc3ccc(-c4ccc5oc(N)nc5c4)nc3n2)CC1 [Compound 581] please.
Solution: < 0.1 µM

Problem: Tell me measured IC50 for C[C@H]1CN(c2cnc3ccc(-c4ccc5oc(N)nc5c4)nc3c2)CCN1 [Compound 598] please.
Solution: < 0.1 µM

Problem: Tell me measured IC50 for C[C@@H]1CN(c2cnc3ccc(-c4ccc5oc(N)nc5c4)nc3c2)CCN1 [Compound 599] please.
Solution: < 1 µM

Origin of values: patent US20150087627A1
